All figures here come from patent US20220062243A1.

# Subject of test: PI4K-IIIβ (Homo sapiens)
# Assay explanation: PI-kinase assay (membrane capture assay for lipid kinase activity), PI4KIIIβ
# Type: biochemical
# Condition context: read-out: PI4KIIIβ kinase activity (IC50 class)
pIC50: −log10 of the molar value.
Catalogue of pIC50 values

>>> result("COc1ccc(-c2sc(NC3CCCCC3)nc2C)cc1S(=O)(=O)NC1CCCC1")
"6.00 to 7.00"

Briefly, pIC50 measured for COc1ccc(-c2sc(NCCC3CCCCC3)nc2C)cc1S(=O)(=O)NC1CCC(O)C1 (stereo not drawn) : 6.00 to 7.00

Briefly, pIC50 measured for COc1ccc(-c2sc(NC3CCCCC3)nc2C)cc1S(=O)(=O)N[C@H]1CC[C@H](O)CC1 : > 7.00

Briefly, pIC50 measured for COc1ncc(-c2sc(NC(=O)CC3CCOCC3)nc2C)cc1S(=O)(=O)Nc1ccc(F)cc1F [Compound S-260] : > 7.00

Briefly, pIC50 measured for COc1ccc(-c2sc(NC(=O)CC3CCCC3)nc2C)cc1S(=O)(=O)N[C@H]1CC[C@H](O)CC1 : > 7.00

Briefly, pIC50 measured for COc1ccc(-c2sc(NC3CCCCC3)nc2C)cc1S(=O)(=O)NC1CCCCCC1 : 6.00 to 7.00

Briefly, pIC50 measured for COc1ccc(-c2sc(NC(=O)CCC3CCCC3)nc2C)cc1S(=O)(=O)NC1CCNCC1 : > 7.00

Briefly, pIC50 measured for COc1ccc(-c2sc(NCC3CCCCC3)nc2C)cc1S(=O)(=O)NC1CCN(C(C)C)CC1 : > 7.00

Briefly, pIC50 measured for COc1ncc(-c2sc(NC(=O)CC3CCOCC3)nc2C)cc1S(=O)(=O)Nc1cccc(O)c1 : > 7.00

* * *

System: PI4K-IIIβ (Homo sapiens, UniProt Q9UBF8) | Read-out: IC50
Sequence (Q9UBF8 whole entry): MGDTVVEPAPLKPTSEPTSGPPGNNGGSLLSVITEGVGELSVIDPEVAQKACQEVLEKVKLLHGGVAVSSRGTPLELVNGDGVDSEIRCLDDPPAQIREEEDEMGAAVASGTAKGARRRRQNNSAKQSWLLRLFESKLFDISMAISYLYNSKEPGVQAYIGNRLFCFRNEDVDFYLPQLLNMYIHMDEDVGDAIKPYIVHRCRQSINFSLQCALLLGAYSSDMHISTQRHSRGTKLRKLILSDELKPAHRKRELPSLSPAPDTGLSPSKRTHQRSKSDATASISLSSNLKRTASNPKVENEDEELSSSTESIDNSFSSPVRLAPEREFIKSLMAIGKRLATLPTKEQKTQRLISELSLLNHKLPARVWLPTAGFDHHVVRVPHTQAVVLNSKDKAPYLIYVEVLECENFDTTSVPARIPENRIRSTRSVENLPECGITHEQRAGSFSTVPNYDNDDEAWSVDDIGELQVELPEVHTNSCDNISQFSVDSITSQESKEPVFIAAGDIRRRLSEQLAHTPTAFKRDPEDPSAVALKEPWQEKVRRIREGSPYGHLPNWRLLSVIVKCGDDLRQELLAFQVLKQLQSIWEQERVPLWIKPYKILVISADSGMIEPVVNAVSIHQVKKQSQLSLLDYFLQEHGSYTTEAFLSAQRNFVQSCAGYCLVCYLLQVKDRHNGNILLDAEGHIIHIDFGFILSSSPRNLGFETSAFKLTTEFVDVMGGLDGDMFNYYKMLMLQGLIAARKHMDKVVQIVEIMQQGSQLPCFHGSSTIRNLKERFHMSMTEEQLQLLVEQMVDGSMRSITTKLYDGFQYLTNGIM

A selection of reference data follows.
>>> result("COc1ccc(-c2sc(NC(=O)Cc3ccccc3)nc2C)cc1S(=O)(=O)Nc1ccc(O)cc1")
"< 100 nM"
>>> result("COc1ccc(-c2sc(NCC(C)C)nc2C)cc1S(=O)(=O)N[C@H]1CC[C@@H](O)CC1")
"< 100 nM"
>>> result("COc1ccc(-c2sc(NCC3CCCCC3)nc2C)cc1S(=O)(=O)NC1CC1")
"100 to 1000 nM"
>>> result("COc1ccc(-c2sc(NCC(C)C)nc2C)cc1S(=O)(=O)N[C@H]1CC[C@H](O)CC1")
"< 100 nM"
>>> result("COc1ccc(-c2sc(N[C@@H](C)C3CCCCC3)nc2C)cc1S(=O)(=O)N[C@H]1CC[C@H](O)CC1")
"< 100 nM"

Item COc1ncc(-c2sc(NC(=O)CC3CCOCC3)nc2C)cc1S(=O)(=O)NC1CCCC(O)C1 (stereo not shown) ; assay system PI4K-IIIβ (Homo sapiens, UniProt Q9UBF8); IC50 reported as < 100 nM

Item COc1ccc(-c2sc(NC(=O)CC3CCCC3)nc2C)cc1S(=O)(=O)N1CC[C@@H](O)C1 ; assay system PI4K-IIIβ (Homo sapiens, UniProt Q9UBF8); IC50 reported as < 100 nM
